// values below are reported MIC
- Test system: Mycobacterium tuberculosis
- test_details: Antimycobacterial activity against multi-drug resistant Mycobacterium tuberculosis Praha 131 after 21 days by microplate dilution method
- Type: functional
- test_settings: Praha 131, 504 h

Guide cases for MIC, answers given:
{"test_smiles": "CCCCCCCNc1cnc(C(=O)NCc2ccccc2)cn1", "MIC": "4 µM"}
{"test_smiles": "CCCCNc1cncc(C(=O)NCc2ccccc2)n1", "MIC": "62.5 µM"}

Next up:
Readout MIC for CCCCCCNc1cnc(C(=O)NCc2ccccc2)cn1 , test system Mycobacterium tuberculosis, was 4 µM

----------
// values below are reported MIC
- System: Mycobacterium tuberculosis
- test_details: Antimycobacterial activity against multi-drug resistant Mycobacterium tuberculosis 234/2005 after 14 days by microplate dilution method
- Type: functional
- test_settings: 234/2005, 336 h
Write down the numeric answer in µM and omit the unit.

Guide cases for MIC, answers given:
{"molecule": "CCCCCCCNc1nccnc1C(=O)NCc1ccccc1", "test_target": "Mycobacterium tuberculosis", "unit_string": "µM", "value": 1000}
{"molecule": "CCCCCCCCNc1cncc(C(=O)NCc2ccccc2)n1", "test_target": "Mycobacterium tuberculosis", "unit_string": "µM", "value": 16}
{"molecule": "CCCCCCNc1nccnc1C(=O)NCc1ccccc1", "test_target": "Mycobacterium tuberculosis", "unit_string": "µM", "value": 1000}

Given item CCCCCCNc1cncc(C(=O)NCc2ccccc2)n1 , the value recorded as its MIC is 16

Given item CCCCNc1nccnc1C(=O)NCc1ccccc1 , the value recorded as its MIC is 125

Given item NNC(=O)c1ccncc1 [ISONIAZID] , the value recorded as its MIC is 16

Given item CCCCCNc1nccnc1C(=O)NCc1ccccc1 , the value recorded as its MIC is 1000

Given item CCCCNc1cncc(C(=O)NCc2ccccc2)n1 , the value recorded as its MIC is 62.5

Given item CCCCCNc1cnc(C(=O)NCc2ccccc2)cn1 , the value recorded as its MIC is 16

Given item CCCCCNc1cncc(C(=O)NCc2ccccc2)n1 , the value recorded as its MIC is 62.5

Given item CCCCCCNc1cnc(C(=O)NCc2ccccc2)cn1 , the value recorded as its MIC is 4

Given item CCCCCCCCNc1cnc(C(=O)NCc2ccccc2)cn1 , the value recorded as its MIC is 4

Every entry's value here was drawn from ChEMBL document CHEMBL3745676.
